- Measured On: T1, human CD20 (human, UniProt P11836 1-297)
- T1 sequence: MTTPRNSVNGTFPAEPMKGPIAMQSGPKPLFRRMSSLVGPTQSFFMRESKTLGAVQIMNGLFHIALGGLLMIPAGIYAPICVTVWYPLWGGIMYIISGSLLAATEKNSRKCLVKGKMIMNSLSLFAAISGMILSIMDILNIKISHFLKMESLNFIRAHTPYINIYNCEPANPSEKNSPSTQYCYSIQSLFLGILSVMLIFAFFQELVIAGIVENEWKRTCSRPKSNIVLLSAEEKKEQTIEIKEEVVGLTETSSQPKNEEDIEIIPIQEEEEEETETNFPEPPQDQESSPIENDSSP
- Test: cell-based or functional assay
Value Kind: ADCC EC50 (pM), Daudi + PBMC
Answer with a number only, understood to be in pM.

Some binders with recorded ADCC EC50 (pM), Daudi + PBMC:
{"columns": ["Binder", "ADCC EC50 (pM), Daudi + PBMC"],
 "data": [
  ["6B9-4 (antibody, V domains shown, Fully human IgG, constant region not specified; also called 6B9-4N) VH: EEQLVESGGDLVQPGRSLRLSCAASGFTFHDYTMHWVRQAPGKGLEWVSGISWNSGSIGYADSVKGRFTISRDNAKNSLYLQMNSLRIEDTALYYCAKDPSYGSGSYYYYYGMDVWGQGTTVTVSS VL: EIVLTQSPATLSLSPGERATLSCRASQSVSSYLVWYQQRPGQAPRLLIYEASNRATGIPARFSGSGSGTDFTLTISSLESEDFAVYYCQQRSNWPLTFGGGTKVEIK", 4.27],
  ["9C11-14 (antibody, V domains shown, Fully human IgG, constant region not specified; also called 9C11-14N) VH: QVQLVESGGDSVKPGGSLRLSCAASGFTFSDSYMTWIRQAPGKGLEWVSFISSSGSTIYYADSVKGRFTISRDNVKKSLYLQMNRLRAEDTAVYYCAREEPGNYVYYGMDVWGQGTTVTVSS VL: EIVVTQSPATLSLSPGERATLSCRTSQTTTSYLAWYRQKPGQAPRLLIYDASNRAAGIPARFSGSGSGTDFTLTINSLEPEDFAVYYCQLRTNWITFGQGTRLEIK", 10.2]
]}

### Prompt Please report the recorded ADCC EC50 (pM), Daudi + PBMC for 2B7-7 (antibody, V domains shown, Fully human IgG, constant region not specified; also called 2B7-7N) VH: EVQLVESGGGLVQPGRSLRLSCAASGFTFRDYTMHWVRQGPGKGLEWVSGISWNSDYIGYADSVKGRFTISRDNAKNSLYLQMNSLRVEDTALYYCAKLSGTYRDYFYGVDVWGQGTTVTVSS VL: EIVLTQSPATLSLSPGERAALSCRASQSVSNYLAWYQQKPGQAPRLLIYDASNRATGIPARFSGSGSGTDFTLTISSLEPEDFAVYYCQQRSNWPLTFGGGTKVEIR .
### Response 1.99

Origin of the recorded values: patent US20090035322A1
